# ASSAY_PROTOCOL: Cell Viability - LYMP2-018 (AID 985);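 also: compound exposure lasted 24 hr at 37 °C; nearly all actives have a fitted effect of over 50% in size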
# CONDITION_SET: LYMP2-018 lymphoblastoid cells, viability (qHTS); series mostly up to 92.2 µM
Inconclusive results are not listed. Calls of active or inactive are those of the source. Calls follow the shape of the dose curve; as a rule, active = well fitted cell-killing curve with a large enough effect; inconclusive = small, poorly fitted or top-dose-only effect; inactive = flat fitted curve, though single readings scatter.
Answer with one of the outcomes active, inactive

What call does the record list for ClC=C(Cl)Cl ?
inactive

What call does the record list for CC(C)(C)c1cc(O)ccc1O ?
active

What call does the record list for C[C@H]1CCC[C@H](O)CCCCCc2cc(O)cc(O)c2C(=O)O1 ?
inactive

What call does the record list for S=C=S ?
inactive

What call does the record list for [O]=[Cd] ?
inactive

What call does the record list for O=Cc1ccco1 ?
inactive

What call does the record list for O=CC=O ?
inactive

What call does the record list for CCOC(=O)c1ccccc1C(=O)OCC ?
inactive

What call does the record list for CCCCCl ?
inactive

What call does the record list for ClC(Cl)(Cl)Cl ?
inactive

What call does the record list for O=C/C=C/c1ccccc1 ?
inactive

What call does the record list for COC1=CC(=O)O[C@@H](/C=C/c2ccccc2)C1 ?
inactive

What call does the record list for C[C@]12CCC(=O)C[C@@H]1CC[C@@H]1[C@@H]2CC[C@]2(C)[C@@H](O)CC[C@@H]12 ?
inactive

What call does the record list for CC(C)Nc1ccc(Nc2ccccc2)cc1 ?
active

What call does the record list for NNC(N)=O ?
inactive

What call does the record list for CCCCCCCCOC(=O)c1ccccc1C(=O)OCCCCCCCC ?
inactive

What call does the record list for O=C(O)C(Cl)(Cl)Cl ?
inactive

====

# TEST_SYSTEM: Endonuclease 4 (Escherichia coli (strain K12)) (UniProt P0A6C1)
# ASSAY_PROTOCOL: Counterscreen for APE1 Inhibitors: qHTS Validation Assay for Inhibitors of Endonuclease IV (AID 1708); also: % is scaled to controls: 0 for no effect and ±100 for the full control effect
# CONDITION_SET: E. coli endonuclease IV, DNA cleavage fluorescence; series mostly up to 57.1 µM
Records with an inconclusive call do not appear. Activity calls are given as the source filed them. The call rests on the fitted dose curve; in most records, active means well fitted inhibition curve with a large enough effect; inconclusive means small, poorly fitted or top-dose-only effect; inactive means no such curve, though single readings can be large or run the other way.
METRIC: outcome

CC(N)[C@H](O)c1ccc(O)c(O)c1 (some centres not stated)	inactive
NCCCP(=O)(O)O	inactive
N[C@@H](CCl)C(=O)O	inactive
Cc1o[nH]c(=O)c1CC(N)C(=O)O (configuration not stated)	inactive
CN(C(=O)Cc1ccc(Cl)c(Cl)c1)C(CN1CCCC1)c1cccc(OCC(=O)O)c1 (configuration not stated)	inactive

Please tell me: outcome of N[C@@]1(C(=O)O)CC[C@@H](C(=O)O)C1 , system Endonuclease 4 (Escherichia coli (strain K12)) (UniProt P0A6C1)?
inactive

Please tell me: outcome of CC(C)(C)c1cc(C=C(C#N)C#N)cc(C(C)(C)C)c1O , system Endonuclease 4 (Escherichia coli (strain K12)) (UniProt P0A6C1)?
inactive

Please tell me: outcome of COc1ccc2[nH]c3c(c2c1)CCNC3 , system Endonuclease 4 (Escherichia coli (strain K12)) (UniProt P0A6C1)?
inactive

Please tell me: outcome of COc1ccc2[nH]cc(CCN)c2c1 , system Endonuclease 4 (Escherichia coli (strain K12)) (UniProt P0A6C1)?
inactive

Please tell me: outcome of CCCN(CCC)CCc1c[nH]c2ccc(C(N)=O)cc12 , system Endonuclease 4 (Escherichia coli (strain K12)) (UniProt P0A6C1)?
inactive

Please tell me: outcome of CC12NC(Cc3ccccc31)c1ccccc12 (configuration not stated) , system Endonuclease 4 (Escherichia coli (strain K12)) (UniProt P0A6C1)?
inactive

====

# ASSAY_PROTOCOL: qHTS assay for small molecule antagonists of retinoid X receptor alpha signaling (AID 588546);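 also: cells stimulated with 9-cis-retinoic acid as agonist; % is scaled to controls: 0 for no effect and ±100 for the full control effect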
# CONDITION_SET: HEK293T RXRa-UAS-bla, beta-lactamase ratio, antagonist mode; measured here: W530 green channel, cytotoxicity proxy
Inconclusive results are not listed.
METRIC: max response (%)
Use % as the unit, but write only the number.

Given the entry CC[C@H](C)[C@H]1O[C@]2(C=C[C@@H]1C)C[C@@H]1C[C@@H](C/C=C(\C)[C@@H](O[C@H]3C[C@H](OC)[C@@H](O[C@H]4C[C@H](OC)[C@@H](O)[C@H](C)O4)[C@H](C)O3)[C@@H](C)/C=C/C=C3\CO[C@@H]4[C@H](O)C(C)=C[C@@H](C(=O)O1)[C@]34O)O2 , report its measured max response.
-21.4

Given the entry N#CN , report its measured max response.
-6.13

Given the entry O=CC=O , report its measured max response.
5.31

Given the entry C=CCN=C=S , report its measured max response.
-9.62

Given the entry COC1=CC(=O)O[C@@H](/C=C/c2ccccc2)C1 , report its measured max response.
0.406

Given the entry O=C(NCNC(=O)NC1C(=O)NC(=O)N1CO)NC1C(=O)NC(=O)N1CO (stereo not given) , report its measured max response.
-13

Given the entry COc1ccc2c(c1OC)C(=O)OC2C1c2cc3c(cc2CCN1C)OCO3 (stereo not given) , report its measured max response.
-2.26

Given the entry O=C1C=CC(=O)C=C1 , report its measured max response.
4.26

Given the entry O=[N+]([O-])c1ccc(F)c([N+](=O)[O-])c1 , report its measured max response.
-4.46

Given the entry C[C@H]1CCC[C@H](O)CCCCCc2cc(O)cc(O)c2C(=O)O1 , report its measured max response.
7.61

====

# Tested on: NIH3T3
# ASSAY_PROTOCOL: Cytotoxic Profiling of Annotated Libraries Using Quantitative High-Throughput Screening (AID 1296008); also: nearly all actives have a fitted effect of over 60% in size
# CONDITION_SET: Five cell lines viability, CellTiter-Glo ATP luminescence, 48-72 h
Results filed as inconclusive are left out. Active and inactive are the calls of the source. The call rests on the fitted dose curve; in most records, active means well fitted inhibition curve with a large enough effect; inconclusive means small, poorly fitted or top-dose-only effect; inactive means flat fitted curve, though single readings scatter.
METRIC: outcome

In the examples that follow, each entry is paired with its recorded outcome.
CC(=O)O[C@H]1C[C@@H](OC(C)=O)C(C)(C)C2C[C@@H](O)[C@]3(C)C(CC[C@@]4(C)[C@H](C5=CC(=O)OC5O)C[C@H]5O[C@]543)[C@]21C (stereo partly drawn)	inactive
Cc1cn(C[C@H](N)C(=O)O)c(=O)n(Cc2cc(-c3ccccc3)sc2C(=O)O)c1=O	inactive
CC(=O)OC1CC(O)C(C)(C)C2CC(OC(C)=O)C3(C)C(CCC4(C)C(c5ccoc5)C(=O)C5OC543)C12C (stereo not drawn)	inactive
Oc1ccc2c3c1O[C@H]1[C@H](N(CCCl)CCCl)CC[C@@]4(O)[C@@H](C2)N(CC2CC2)CC[C@]314	inactive

Given the entry N#CC(OC1OC(COC2OC(CO)C(O)C(O)C2O)C(O)C(O)C1O)c1ccccc1 (stereo not drawn) , report its measured outcome.
inactive

Given the entry COc1ccccc1CN[C@H]1C2CCN(CC2)[C@H]1C(c1ccccc1)c1ccccc1 , report its measured outcome.
inactive

Given the entry CN1[C@H]2C[C@H](OC(=O)[C@H](CO)c3ccccc3)C[C@@H]1[C@@H](O)C2 , report its measured outcome.
inactive

Given the entry CN1CCCC1CCOC(c1cc2nccc(C(=O)O)c2[nH]1)c1ccccc1Cl (stereo not drawn) , report its measured outcome.
inactive

====

# ASSAY_PROTOCOL: qHTS for Inhibitors of ATXN expression: Validation (AID 588378); also: nearly all actives have a fitted effect of over 75% in size
# CONDITION_SET: cell-based ATXN2 expression reporter assay, luminescence; series mostly up to 57.1 µM
Records with an inconclusive call do not appear. The source made the active and inactive calls. Calls come from the whole dose curve; as a rule, active = well fitted inhibition curve with a large enough effect; inconclusive = small, poorly fitted or top-dose-only effect; inactive = no such curve, though single readings can be large or run the other way.
Answer with one of the outcomes t for active, f for inactive

What call does the record list for CCCN(CCC)CCc1c[nH]c2ccc(C(N)=O)cc12 ?
f

What call does the record list for C#CCN[C@H](C)Cc1ccccc1 ?
f

What call does the record list for C[C@@H]1O[C@@H](O[C@H]2C[C@@H](O)[C@]3(CO)[C@@H]4C(CC[C@]3(O)C2)[C@@]2(O)CC[C@H]([C@@H]3COC(=O)C3)[C@@]2(C)C[C@H]4O)[C@H](O)[C@H](O)[C@H]1O (some centres undefined) ?
t

What call does the record list for N[C@@H](CCl)C(=O)O ?
f

====

# System: SC27B
# ASSAY_PROTOCOL: qHTS profiling for inhibitors of Plasmodium falciparum proliferation (AID 504749); also: nearly all actives have a fitted effect of over 60% in size
# CONDITION_SET: P. falciparum in erythrocytes, SYBR Green DNA, 72 h; series mostly up to 28.7 µM
Records with an inconclusive call do not appear. Activity calls are given as the source filed them. The call rests on the fitted dose curve; in most records, active means well fitted inhibition curve with a large enough effect; inconclusive means small, poorly fitted or top-dose-only effect; inactive means flat fitted curve, though single readings scatter.
Answer with one of the outcomes yes (active), no (inactive)

What call does the record list for CCN(CC)C(=O)/C(Cl)=C(\C)OP(=O)(OC)OC ?
no

What call does the record list for CNC1(c2ccccc2Cl)CCCCC1=O (configuration not stated) ?
no

What call does the record list for OC(c1ccccc1)(c1ccccc1)C1CN2CCC1CC2 (configuration not stated) ?
no

What call does the record list for CN1C2CCC1CC(OC(c1ccccc1)c1ccc(Cl)cc1)C2 (configuration not stated) ?
yes

What call does the record list for CCCC(C)(COC(N)=O)COC(=O)NC1CC1 (configuration not stated) ?
no

What call does the record list for c1ccc2cc(CC3=NCCN3)ccc2c1 ?
no

What call does the record list for O=C1CCCCC1CN1CCCCC1 (configuration not stated) ?
no

Every entry's value here was drawn from PubChem BioAssay (NCATS).
